# System: HCT-15 (human colon adenocarcinoma)
# procedureText: SRB cytotoxicity assay, HCT-15 cells
# Type: cell-based
# reportedConditions: Homo sapiens, HCT-15, read-out: IC50 HCT15
metric: IC50 (µM)
The figure you give is taken to be in µM; do not add the unit.

*Q* Observed IC50 on HCT-15 (human colon adenocarcinoma) for COc1ccc(/C=C/C(=O)/C=C(O)/C=C/c2ccc(OC)c(OC)c2)cc1OC , please.
*A* 6.6

----------
# System: U251 (human glioblastoma)
# procedureText: SRB cytotoxicity assay, U251 cells
# Type: cell-based
# reportedConditions: Homo sapiens, U-251, read-out: IC50 U251
metric: pIC50
By convention, pIC50 is the negative base-10 log of a molar concentration.

*Q* Request the reported pIC50 associated with COc1ccc(/C=C/C(=O)/C=C(O)/C=C/c2ccc(OC)c(OC)c2)cc1OC
*A* 5.69
